Reported IC50 values follow for various molecules
Molecular target: UniProtKB Q16880
Sequence (Q16880 21-541): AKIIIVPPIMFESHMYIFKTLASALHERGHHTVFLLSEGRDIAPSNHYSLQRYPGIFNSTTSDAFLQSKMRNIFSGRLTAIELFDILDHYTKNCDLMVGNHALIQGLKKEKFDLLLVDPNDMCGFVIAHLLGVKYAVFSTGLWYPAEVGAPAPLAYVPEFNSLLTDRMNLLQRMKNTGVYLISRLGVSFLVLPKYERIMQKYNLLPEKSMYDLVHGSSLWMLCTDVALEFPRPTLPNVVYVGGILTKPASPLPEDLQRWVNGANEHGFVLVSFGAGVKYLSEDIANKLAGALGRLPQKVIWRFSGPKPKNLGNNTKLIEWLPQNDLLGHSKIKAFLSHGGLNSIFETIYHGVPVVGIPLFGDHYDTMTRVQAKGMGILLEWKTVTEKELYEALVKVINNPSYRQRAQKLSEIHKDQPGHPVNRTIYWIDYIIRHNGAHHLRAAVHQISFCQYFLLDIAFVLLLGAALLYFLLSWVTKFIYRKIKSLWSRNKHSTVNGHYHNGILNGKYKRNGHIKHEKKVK
Experiment: Assay 1: CGT Enzymatic Assay (RapidFire/MS/MS, 0.01% Tween 80)
Type: biochemical
Conditions: Table 1, Compounds of Formula (I) and Formula (II); CGT enzymatic assay; read-out: IC50

Recorded IC50, per entry:
>  <molecule>
CC#Cc1cccc(C2(O)C(C)N(c3ccc(Cl)cc3)C(=O)N2c2ccc(Cl)cc2)c1 (stereo not shown)

>  <measurement-label>
IC50

>  <assay-value>
< 1 µM

$$$$
>  <molecule>
CCCc1c(CCC)n(-c2ccc(Br)cc2)c(=O)n1-c1ccc(Br)cc1

>  <measurement-label>
IC50

>  <assay-value>
> 50 µM

$$$$

INPUT: Item under review: O=c1n(-c2ccc(Br)cc2)c2c(n1-c1ccc(Br)cc1)CCCC2 . Reported IC50?
OUTPUT: 10 to 50 µM

INPUT: Moving on to O=C1N(c2ccc(Cl)cc2)C(C2COC2)C(O)(c2cccc(OC(F)(F)F)c2)N1c1ccc(Cl)cc1 (stereo not shown)
OUTPUT: < 1 µM

INPUT: Moving on to O=C1N(c2ccc(Br)cc2)C(C2CC2)C(O)(c2ccccc2)N1c1ccc(Br)cc1 (stereo not shown)
OUTPUT: < 1 µM

INPUT: Moving on to CC[C@H]1N(c2ccc(F)cc2)C(=O)N(c2ccc(F)cc2)C1(O)c1cccc(C#N)c1 (stereo partly shown)
OUTPUT: < 1 µM

INPUT: Moving on to O=C1N(c2ccc(Cl)cc2)CC(O)(c2cccc(C3CC3)c2)N1c1ccc(Cl)cc1 (stereo not shown)
OUTPUT: 1 to 10 µM
